These entries and their values trace back to patent US20200407445A1.

target: T1, Cyno TIGIT-Fc (cynomolgus, UniProt A0A7N9I9V4 89-209); experiment: ForteBio BLI, Fab KD, monovalent
T1 construct: not shown: Fc part
T1 sequence (A0A7N9I9V4 entry or part of it): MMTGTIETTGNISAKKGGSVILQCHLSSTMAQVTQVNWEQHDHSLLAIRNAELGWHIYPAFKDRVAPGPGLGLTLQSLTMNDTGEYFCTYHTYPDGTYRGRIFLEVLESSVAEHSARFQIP
pKd: −log10 of the molar value.
Below: a set of entries, each annotated with reported pKd.
attribute_measured: pKd

binder	attribute_measured	quantitative_result
Fab of anti-TIGIT clone 29513 (Fab, V domains shown) VH: QVQLVQSGAEVKKPGSSVKVSCKASGGTFQNYAISWVRQAPGQGLEWMGVIVPIFGTANYAQKFQGRVTVTADESTSTAYMELSSLRSEDTAVYYCARLHLGQKAYYGMDVWGQGTTVTVSS VL: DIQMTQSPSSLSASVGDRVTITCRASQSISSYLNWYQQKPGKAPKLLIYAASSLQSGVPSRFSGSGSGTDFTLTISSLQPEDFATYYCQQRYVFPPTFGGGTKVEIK	pKd	8.02
Fab of anti-TIGIT clone 26518 (Fab, V domains shown) VH: EVQLVESGGGLVQPGGSLRLSCAASGFTFSSYGMSWVRQAPGKGLEWVANIKQDGSEKYYVDSVKGRFTISRDNAKNSLYLQMNSLRAEDTAVYYCARVSYYYDSSKLRWAEYFQHWGQGTLVTVSS VL: EIVLTQSPATLSLSPGERATLSCRASQSVSSYLAWYQQKPGQAPRLLIYDASKRATGIPARFSGSGSGTDFTLTISSLEPEDFAVYYCQQVHNFPLTFGGGTKVEIK	pKd	8.35
Fab of anti-TIGIT clone 29478 (Fab, V domains shown) VH: EVQLVESGGGVVQPGRSLRLSCAASGFTFESYGMVWVRQAPGKGLEWVASILYDGSNRYYADSVKGRFTVSRDNSKNTLYLQMNSLRAEDTAVYYCARVSYYYDSVELRWAEYFQHWGQGTLVTVSS VL: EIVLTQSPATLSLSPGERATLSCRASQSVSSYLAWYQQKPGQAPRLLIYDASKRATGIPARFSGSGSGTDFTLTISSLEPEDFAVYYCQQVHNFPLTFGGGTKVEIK	pKd	8.90
